All values here come from patent US7432256B2.

Target: GABA A receptor a5b3g2 (hα5) (Homo sapiens, UniProt P18507+P31644)
Construct: expressed in transfected cells; host or cells: HEK293 (transient transfection), membranes
Experiment: [3H]flumazenil competition binding, GABA A a5b3g2 receptors in HEK293 cells
Conditions: [3H]flumazenil 0.5 nM; HEK293 membranes, human transiently transfected; mean of two determinations; read-out: Ki[nM] hα5
Experimental: Membrane Preparation and Binding Assay The affinity of compounds at GABA A receptor subtypes was measured by competition for [3H]flumazenil (85 Ci/mmol; Roche) binding to HEK293 cells expressing rat (stably transfected) or human (transiently transfected) receptors of composition a1b3g2, a2b3g2, a3b3g2 and a5b3g2. […]
Define the label as Fulfilled when Ki is strictly less than 2 nM and as Not fulfilled in all remaining cases.

is_below(Ki, 2 nM) for C#Cc1ncn2c1Cn1ncnc1-c1cc(Br)ccc1-2 ?
Fulfilled

is_below(Ki, 2 nM) for Clc1ccc2c(c1)-c1ncnn1Cc1c(CC3CC3)ncn1-2 ?
Fulfilled

is_below(Ki, 2 nM) for C=Cc1ncn2c1Cn1ncnc1-c1ccccc1-2 ?
Fulfilled

is_below(Ki, 2 nM) for Cc1ncn2c1Cn1ncnc1-c1cc(F)ccc1-2 ?
Not fulfilled

is_below(Ki, 2 nM) for CCc1ncn2c1Cn1ncnc1-c1cc(OC)ccc1-2 ?
Not fulfilled

is_below(Ki, 2 nM) for Clc1ccc2c(c1)-c1ncnn1Cc1c(C#Cc3ccccc3)ncn1-2 ?
Fulfilled

is_below(Ki, 2 nM) for Clc1ccc2c(c1)-c1ncnn1Cc1c(/C=C/C3CC3)ncn1-2 ?
Not fulfilled

is_below(Ki, 2 nM) for C=Cc1ncn2c1Cn1ncnc1-c1cc(Cl)ccc1-2 ?
Not fulfilled

is_below(Ki, 2 nM) for C/C=C/c1ncn2c1Cn1ncnc1-c1cc(Cl)ccc1-2 ?
Fulfilled

is_below(Ki, 2 nM) for CC(C)(O)C#Cc1ncn2c1Cn1ncnc1-c1cc(Cl)ccc1-2 ?
Not fulfilled

is_below(Ki, 2 nM) for CCCc1ncn2c1Cn1ncnc1-c1cc(Br)ccc1-2 ?
Fulfilled

is_below(Ki, 2 nM) for CCc1ncn2c1Cn1ncnc1-c1cc(F)ccc1-2 ?
Fulfilled

is_below(Ki, 2 nM) for CC(C)c1cccc(C#Cc2ncn3c2Cn2ncnc2-c2cc(F)ccc2-3)c1 ?
Fulfilled

is_below(Ki, 2 nM) for Cc1ncn2c1Cn1ncnc1-c1ccccc1-2 ?
Not fulfilled

is_below(Ki, 2 nM) for FC(F)Cc1ncn2c1Cn1ncnc1-c1ccccc1-2 ?
Fulfilled

is_below(Ki, 2 nM) for FC(F)=Cc1ncn2c1Cn1ncnc1-c1ccccc1-2 ?
Fulfilled

is_below(Ki, 2 nM) for CCc1ncn2c1Cn1ncnc1-c1cc(Cl)ccc1-2 ?
Not fulfilled

is_below(Ki, 2 nM) for CCCc1ncn2c1Cn1ncnc1-c1cc(Cl)ccc1-2 ?
Fulfilled

is_below(Ki, 2 nM) for Fc1cccc(C#Cc2ncn3c2Cn2ncnc2-c2cc(F)ccc2-3)c1 ?
Fulfilled

is_below(Ki, 2 nM) for C=Cc1ncn2c1Cn1ncnc1-c1cc(F)ccc1-2 ?
Not fulfilled

is_below(Ki, 2 nM) for Cc1ncn2c1Cn1ncnc1-c1c(F)cccc1-2 ?
Fulfilled

is_below(Ki, 2 nM) for C#Cc1ncn2c1Cn1ncnc1-c1cc(Cl)ccc1-2 ?
Fulfilled

is_below(Ki, 2 nM) for Fc1ccc2c(c1)-c1ncnn1Cc1c(C#Cc3cccc(C(F)(F)F)c3)ncn1-2 ?
Fulfilled

* * *

target: GABA A receptor a3b3g2 (hα3) (Homo sapiens, UniProt P18507+P34903); construct: expressed in transfected cells; host or cells: HEK293 (transient transfection), membranes; test: [3H]flumazenil competition binding, GABA A a3b3g2 receptors in HEK293 cells
readout.label: pKi
Hey, just a heads up that pKi is the negative log base 10 of the concentration in molar.

The compound listed as Clc1ccc2c(c1)-c1ncnn1Cc1c(/C=C/C3CC3)ncn1-2 has a reported pKi of 7.49

The compound listed as Cc1ncn2c1Cn1ncnc1-c1cc(F)ccc1-2 has a reported pKi of 7.97

The compound listed as C=Cc1ncn2c1Cn1ncnc1-c1cc(F)ccc1-2 has a reported pKi of 8.64

* * *

For each entry below, report its Ki value.
molecular target: GABA A receptor a2b3g2 (hα2) (Homo sapiens, UniProt P18507+P47869); construct: expressed in transfected cells; host or cells: HEK293 (transient transfection), membranes; experiment: [3H]flumazenil competition binding, GABA A a2b3g2 receptors in HEK293 cells
Your answer should be a plain number; it is taken to be in nM.

The molecule listed as C#Cc1ncn2c1Cn1ncnc1-c1cc(Br)ccc1-2 [Example 27] has a reported Ki of 19

The molecule listed as FC(F)=Cc1ncn2c1Cn1ncnc1-c1ccccc1-2 [Example 40] has a reported Ki of 3.7

The molecule listed as C/C=C/c1ncn2c1Cn1ncnc1-c1cc(Cl)ccc1-2 [Example 21] has a reported Ki of 6.9

The molecule listed as C#Cc1ncn2c1Cn1ncnc1-c1cc(Cl)ccc1-2 [Example 26] has a reported Ki of 6.4

* * *

target: GABA A receptor a3b3g2 (hα3) (Homo sapiens, UniProt P18507+P34903); construct: expressed in transfected cells; host or cells: HEK293 (transient transfection), membranes; assay: [3H]flumazenil competition binding, GABA A a3b3g2 receptors in HEK293 cells
readout.label: pKi
Hey, just a heads up that pKi is the negative log base 10 of the concentration in molar.

Summary: FC(F)Cc1ncn2c1Cn1ncnc1-c1ccccc1-2 , GABA A receptor a3b3g2 (hα3) (Homo sapiens, UniProt P18507+P34903), pKi = 8.15

Summary: Clc1ccc2c(c1)-c1ncnn1Cc1c(CC3CC3)ncn1-2 , GABA A receptor a3b3g2 (hα3) (Homo sapiens, UniProt P18507+P34903), pKi = 8.21

Summary: CCc1ncn2c1Cn1ncnc1-c1cc(Cl)ccc1-2 , GABA A receptor a3b3g2 (hα3) (Homo sapiens, UniProt P18507+P34903), pKi = 8.15
